tested on: SiHa; test: Growth inhibition of human SiHa cells; format: functional
Attribute: GI50
Only the number, expressed in nM, is required.

Here are 5 compounds together with their reported answers.
{"columns": ["smiles.repr", "scale.unit", "GI50"],
 "data": [
  ["COc1ccc(-c2ccc3c(c2)c2cc(-c4ccc(OC)cc4)ccc2n3CCCCCOc2cc3c(cc2OC)C(=O)N2CCC[C@H]2C=N3)cc1", "nM", 170],
  ["COc1ccc(-c2ccc3c(c2)c2cc(-c4ccc(OC)cc4)ccc2n3CCCCOc2cc3c(cc2OC)C(=O)N2CCC[C@H]2C=N3)cc1", "nM", 170],
  ["COc1cc2c(cc1OCCCCCCn1c3ccccc3c3ccccc31)N=C[C@@H]1CCCN1C2=O", "nM", 1580],
  ["COc1cccc2c1C(=O)c1c(O)c3c(c(O)c1C2=O)C[C@@](O)(C(=O)CO)C[C@@H]3O[C@H]1C[C@H](N)[C@H](O)[C@H](C)O1", "nM", 170],
  ["COc1cc2c(cc1OCCCCn1c3ccccc3c3ccccc31)N=C[C@@H]1CCCN1C2=O", "nM", 1700]
]}

Could you share what GI50 was measured for COc1cc2c(cc1OCCCN1CCN(CCCCn3c4ccccc4c4ccccc43)CC1)N=C[C@@H]1CCCN1C2=O , tested on SiHa?
130

Give recorded GI50 with SiHa for the following compound: COc1cc2c(cc1OCCCN1CCN(CCCn3c4ccccc4c4ccccc43)CC1)N=C[C@@H]1CCCN1C2=O
140

Recorded GI50 for COc1ccc(-c2ccc3c(c2)c2cc(-c4ccc(OC)cc4)ccc2n3CCCOc2cc3c(cc2OC)C(=O)N2CCC[C@H]2C=N3)cc1 with SiHa, please?
170

Lab request: please report GI50 under test system SiHa for COc1cc2c(cc1OCCCCCn1c3ccccc3c3ccccc31)N=C[C@@H]1CCCN1C2=O
1680

Recall the recorded GI50 for COc1cc2c(cc1OCCCn1c3ccccc3c3ccccc31)N=C[C@@H]1CCCN1C2=O with SiHa and state it.
1700
